Listing of pIC50 toward PIK3CD (Human), each taken from a published source.
pIC50: −log10 of the molar value.
Parameter measured: pIC50

* N#CCc1ccc(Nc2ncnc3ccc(-c4ccc5[nH]ccc5c4)cc23)cc1 | < 5.00
* C[C@H](NC(=O)c1cnc2cccnn12)c1cc2cccc(Cl)c2c(C(=O)N2CCOCC2)n1 | > 6.00
* C[C@H](Nc1ncnc2[nH]cnc12)c1cc2cccc(Cl)c2c(C(=O)N2CCC2)n1 | > 6.00
* Cc1ccc2c(c1)C(=O)N(C)c1cnc(Nc3cccc(S(=O)(=O)N4CCN(C)CC4)c3)nc1N2C | 6.25
* COc1ncc(-c2nc(N3CCOCC3)nc3c(CN4CCN(C(=O)C(C)(C)C)CC4)csc23)cc1NS(C)(=O)=O | 8.21
* C[C@H]1CN(c2cc(-c3cnc(N)nc3C(F)(F)F)nc(N3CCOCC3)n2)C(=O)O1 | 7.68
* COc1cc(-c2nn(Cc3cc4cccc(C)c4c(=O)n3-c3ccccc3F)c3ncnc(N)c23)ccc1Cl | > 5.00
* CN1CCN(c2ncnc3ccc(-c4ccc5oc(N)nc5c4)cc23)CC1 | > 5.00
* COc1cccc2cc([C@H](C)NC(=O)c3c(N)nn4cccnc34)n(-c3ccccc3)c(=O)c12 | 5.00 to 6.00
* Cc1cccnc1-n1c(Cn2nc(-c3cc(O)cc(F)c3)c3c(N)ncnc32)cc2ccccc2c1=O | > 7.00
* C[C@H](NC(=O)c1nc(-c2cccc(S(=O)(=O)N3CCCC3)c2)cnc1N)c1cc2cccc(Cl)c2c(=O)n1-c1ccccc1 | 5.00 to 6.00
* COc1ncc(-c2nc(N3CCOCC3)nc3c(CN4CCN(C(C)(C)C)CC4)c(C)sc23)cc1NS(C)(=O)=O | 8.59
* C[C@H](NC(=O)c1c(N)nn2cccnc12)c1cc2cccc(CNCC3CCCO3)c2c(=O)n1-c1ccccc1 (stereo partly drawn) | 5.00 to 6.00
* Cc1cccc2cc(Cn3nc(/C=C4/SC(=O)NC4=O)c4c(N)ncnc43)n(-c3ccccc3F)c(=O)c12 | > 7.00
* CCN1CCN(C2CN(c3cnc4ccc(-c5ccc6nc(N)[nH]c6c5)nc4c3)C2)CC1 | < 5.00
